Endpoint: melting point

Request: Can you share its melting point? I mean this compound: Cc1cc(C)c(S(=O)(=O)NCc2cn(Cc3cccc(Oc4ccccc4)c3)nn2)c(C)c1 [11h]
Result: 111 to 113 °C

Request: Check O=S(=O)(NCc1cn(Cc2cccc(Oc3ccccc3)c2)nn1)c1ccc(Cl)s1 [11b] too.
Result: 110 to 111 °C

---

Test system: MGC-803 (human gastric cancer cell line)
Assay: MTT antiproliferative assay, MGC-803
Format: cell-based
Details: exposure for 48 h, means ± SDs of three independent experiments
Exam item: assign y to entries whose IC50 is below 30 µM and n to entries at or above 30 µM. Note that a value of exactly 30 µM receives n.

Known results for compounds:
Compound	Experimental System	Category Label
C#CCNS(=O)(=O)c1cccs1 [9a]	MGC-803 (human gastric cancer cell line)	n
O=c1ccc2cc(S(=O)(=O)NCc3cn(Cc4cccc(Oc5ccccc5)c4)nn3)ccc2o1 [11d]	MGC-803 (human gastric cancer cell line)	n
Cc1cc(C)c(S(=O)(=O)NCc2cn(Cc3cccc(Oc4ccccc4)c3)nn2)c(C)c1 [11h]	MGC-803 (human gastric cancer cell line)	y
O=S(=O)(NCc1cn(Cc2cccc(Oc3ccccc3)c2)nn1)c1ccc(Cl)s1 [11b]	MGC-803 (human gastric cancer cell line)	y
O=S(=O)(NCc1cn(Cc2cccc(Oc3ccccc3)c2)nn1)c1ccccc1 [11e]	MGC-803 (human gastric cancer cell line)	y
O=S(=O)(NCc1cn(Cc2cccc(Oc3ccccc3)c2)nn1)c1ccccc1Cl [11i]	MGC-803 (human gastric cancer cell line)	y
Cc1ccc(S(=O)(=O)NCc2cn(Cc3cccc(C#N)c3)nn2)cc1 [11j]	MGC-803 (human gastric cancer cell line)	n
C#CCNS(=O)(=O)c1ccc(C)cc1 [9f]	MGC-803 (human gastric cancer cell line)	n

Request: Here's an entry: O=S(=O)(NCc1cn(Cc2cccc(Oc3ccccc3)c2)nn1)c1cccs1 [11a] . Is its IC50 below 30 µM?
Result: y

Request: Check COc1cccc(Cn2cc(CNS(=O)(=O)c3ccc(C)cc3)nn2)c1 [11l] too.
Result: n

Request: Check O=S(=O)(NCc1cn(Cc2cccc(Oc3ccccc3)c2)nn1)c1ccc(Br)s1 [11c] too.
Result: n
